The measured values listed here are drawn from ChEMBL document CHEMBL1201862.

# Tested on: UO-31
# PROTOCOL: NCI tumour cell line growth inhibition, 48 h
Active and inactive are the calls of the source. No stated cut-off is given here; in the data, active = GI50 up to about 1.1 µM and inactive = higher.
Documented GI50 across a set of compounds

{"columns": ["COMPOUND", "RESULT"],
 "data": [
  ["CN(CCO)CCCC1COc2ccccc2O1 (stereo unspecified)", "> 100 µM (inactive)"],
  ["COc1nc2c(nc(N)n2C2OCC(O)C(O)C2O)c(=O)n1C (stereo unspecified)", "> 100 µM (inactive)"],
  ["CC1OC(n2cnc3c(N)nc(Cl)nc32)C(C)(O)C1O (stereo unspecified)", "16.7 µM (inactive)"],
  ["O=C1/C(=C/c2ccccc2)CN(C(=O)CCN2CCOCC2)C/C1=C\\c1ccccc1", "8.97 µM (inactive)"],
  ["CNC1C(O)C(NC)C2OC3(O)C(=O)CC(C)OC3OC2C1O (stereo unspecified)", "> 100 µM (inactive)"]
]}

# evaluate next
Entry `O=c1ccc2ccc(O)cc2o1` ; assay system UO-31; GI50 recorded at > 100 µM (inactive)
